tested on: MS2 coat protein; experiment: apparent KD of MS2 coat protein; designed switch direction (-1 OFF switch, 1 ON switch): -1; higher = weaker reporter binding; conditions: input ligand: none
quantity-name: apparent KD of MS2 coat protein (µM)
Quick note: give the figure in µM, leave out the unit.

Below: 4 sequences and their reported apparent KD of MS2 coat protein.
ACGCUACAUGAGGAUCACCCAUGUGAGGAUAUUUGAUCCAGGCAGCAAAGGAUGAUACGGAGAAGGUACAUGGU [Eternabot (L1) Solution 35] (Eterna round: R97, puzzle: Exclusion 1)    0.147
CUAGUGUAAGGAUAUGCCUGGCCGUGAGGCCAGAUUGAAUAGCAGAAGGUACAUGAGGAUCACCCAUGUACGGG [jl-ex4-4.62 ViennaUCT mod] (Eterna round: R97, puzzle: Exclusion 4)    0.0264
AAGAGGAUCGGAGGAUAUGGAGCUGAAACGGCGCUAGAAGGCCGUCCAGUGUAACAUGAGGAUCACCCAUGUAGGGACCUCUAA [EX ng 1 4.1] (Eterna round: R96, puzzle: Exclusion NG 1)    0.102
AAGCGCGAGGCAGGAUAUGCAGAGCGGGUGGCCCGUGCAGAAAAUAACAUGAGGAUCACCCAUGUGCAGAAGGGCCGGGUGACC [Anataredra] (Eterna round: R96, puzzle: Exclusion NG 2)    0.0729

Would you kindly look at the next entry?
Here UGUGUGCUGCGAGGAUAUACAUGAGGAUCACCCAUGUAAAUGUGUGAGGCUUUGCCUCACACAAUGUAGAAGGCGCAGUACACU [Mat - Exclusion NG 2 - Mod of JL - D4] (Eterna round: R96, puzzle: Exclusion NG 2) was tested on MS2 coat protein, and its apparent KD of MS2 coat protein came to 0.0116

* * *

system: MS2 coat protein; assay: apparent KD of MS2 coat protein; designed switch direction (-1 OFF switch, 1 ON switch): 1; higher = weaker reporter binding; details: input ligand: microRNA oligo, concentration not stated
Label YES when apparent KD of MS2 coat protein is at or above 30 nM; anything below gets NO.

Field: example entries. Status: answers known.
AGCUAGUACCGAGGAUAUACGAACAUGAGGAUCACCCAUGUAUACAUGGUUUAAUGAGACUACAUGUAGAAGGCGGUACUAGCA [SameState NG2 #11] (Eterna round: R96, puzzle: Same State NG 2)    YES
UUAUCAUUGCAAGGAUAUUGAUUACAUGAGGAUCACCCAUGUUAAUGAACACUAUGUACUACUAACAAGAAGGUGCUAUAAAUU [JR_SSNG2_Sub041] (Eterna round: R96, puzzle: Same State NG 2)    NO
AUUUGUAAUGCAGGAUAUGAUUAACAUGAGGAUCACCCAUGUGGUGUUGUGAGUAAGGAGAGUGAUCAGAAGGGCAUUUUUUUU [JMF's solution 98] (Eterna round: R96, puzzle: Same State NG 2)    YES
GUGGUCAGACAUGAGGAUCACCCAUGUGGAAUAAAUAAGGAAUAGGAUAUGGAAUAUAGGAUAUACCAGAAGGAUUGGUUGGUG (Eterna round: R96, puzzle: Same State NG 3)    YES
AGUAGUUUAACAUGAGGAUCACCCAUGUAUUUUUCUGUAACCUAGGAUAUGGGCGUUGUAUUUAUCCAGAAGGAGGAUCGUUUA [JR_SSNG3_Sub048] (Eterna round: R96, puzzle: Same State NG 3)    NO
GGUGGGUUACUACCAACACAUGAGGAUCACCCAUGUUUUGGGAAGGAUAUGGUACCUAUUUGGUACCAGAAGGUCCUGUUGGUG [salish99_SSNG3_r04_706] (Eterna round: R96, puzzle: Same State NG 3)    YES
GGUGGGUUGCUGCCGGCACAUGAGGAUCACCCAUGUUUUGGGAAGGAUAUGGUACCUAUUUGGUGCCAGAAGGUCCCGUUGGUG [salish99_SSNG3_r04_710] (Eterna round: R96, puzzle: Same State NG 3)    YES
UUAUUAUUUACAUGAGGAUCACCCAUGUUUUUAUGUCAGAGAUAGGAUAUAGAAGUCUCGUUUUACUAGAAGGAUCUUUUUAUU [JR_SSNG3_Sub083] (Eterna round: R96, puzzle: Same State NG 3)    NO

Prompt: Reported apparent KD of MS2 coat protein reaches at least 30 nM for UCGUUCAUCGUAGGAUAUCUAGGAUAUGAACGAGGAUCACCCGAGCAGCAUCAGCGCAUCAGAGGAGAGAAGGACGCUGAUGCG [pwkr ssNG2 2F5 2FMN.20] (Eterna round: R96, puzzle: Same State NG 2) ?
Completion: NO

Prompt: Reported apparent KD of MS2 coat protein reaches at least 30 nM for GUAGCAUACCGAGGAUAUUCAUAUAAUAACAUGAGGAUCACCCAUGUAUAUAGGCGAAAGCCUUGGGAGAAGGCGGAAUGCUAC [Xeonanis - 20 Mod64] (Eterna round: R96, puzzle: Same State NG 2) ?
Completion: NO

Prompt: Reported apparent KD of MS2 coat protein reaches at least 30 nM for GCUCGAUGAGCUGUUUACAUGAGGAUCACCCAUGUAGAUGCGGAGGAUAUUUACGUGCUUUAUGUAGAGAAGGCCGUAUCGAGC [SameState NG3 #80] (Eterna round: R96, puzzle: Same State NG 3) ?
Completion: NO

Prompt: Reported apparent KD of MS2 coat protein reaches at least 30 nM for GCCGCGUUUCGCGCCUACAUGAGGAUCACCCAUGUAUGUCGGCAGGAUAUCGUUUGCUUUGCAAACGAGAAGGGCUGUUGUGGC [salish99_SSNG3_R04_011] (Eterna round: R96, puzzle: Same State NG 3) ?
Completion: NO

Prompt: Reported apparent KD of MS2 coat protein reaches at least 30 nM for UGCCUGAGUCGAGGAUAUUAUGGAUCAAUUAAUACAUGAGGAUCACCCAUGUAAUUAAUUUAACAUGAGAAGGUGACUCAGGCU [SSNG2/10-B3] (Eterna round: R96, puzzle: Same State NG 2) ?
Completion: NO

Origin of values: the supplement of paper PMC9170038
